// provenance: paper PMC10085679

target: IFI16HinAB (Homo sapiens, UniProt Q16666-2 159-729); assay: fluorescence anisotropy; 160 mM KCl (60 mM KCl for IFI16HinAB); buffer, pH and temperature not given in the available text; conditions: protein: recombinant
Sequence (Q16666 other isoform, or with tags, fused parts or gaps): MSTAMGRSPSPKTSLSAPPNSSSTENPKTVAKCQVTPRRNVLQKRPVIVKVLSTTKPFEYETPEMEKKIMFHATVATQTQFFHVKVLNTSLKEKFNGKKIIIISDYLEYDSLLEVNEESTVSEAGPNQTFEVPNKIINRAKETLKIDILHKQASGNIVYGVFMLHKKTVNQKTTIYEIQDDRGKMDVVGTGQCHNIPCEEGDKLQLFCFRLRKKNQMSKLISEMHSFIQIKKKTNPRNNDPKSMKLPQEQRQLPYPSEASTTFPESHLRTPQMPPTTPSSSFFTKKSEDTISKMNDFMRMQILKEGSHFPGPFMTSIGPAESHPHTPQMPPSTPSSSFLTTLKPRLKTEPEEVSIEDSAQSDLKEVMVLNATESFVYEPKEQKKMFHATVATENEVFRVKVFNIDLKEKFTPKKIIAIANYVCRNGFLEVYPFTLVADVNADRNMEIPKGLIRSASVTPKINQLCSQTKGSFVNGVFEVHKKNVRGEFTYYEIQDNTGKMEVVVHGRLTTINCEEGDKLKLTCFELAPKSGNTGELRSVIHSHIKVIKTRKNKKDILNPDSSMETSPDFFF
Task for the reader: assign each of the following binders its reported pKd.
Answer as the number alone; pKd is minus log10 of concentration in mol/L.

INPUT: Look up and report measured pKd for this entry: 60-base ssRNA_U (ssRNA) RNA: UUUCUUUCUUUCUUUCUUUCUUUCUUUCUUUCUUUCUUUCUUUCUUUCUUUCUUUCUUUC
OUTPUT: 7.52

INPUT: Look up and report measured pKd for this entry: 60-bp DNA:RNA hybrid (DNA:RNA) DNA: TAAGACACGATGCGATAAAATCTGTTTGTAAAATTTATTAAGGGTACAAATTGCCCTAGC RNA: GCUAGGGCAAUUUGUACCCUUAAUAAAUUUUACAAACAGAUUUUAUCGCAUCGUGUCUUA
OUTPUT: 7.22

INPUT: Look up and report measured pKd for this entry: 60-base ssDNA_T (ssDNA) DNA: TTTCTTTCTTTCTTTCTTTCTTTCTTTCTTTCTTTCTTTCTTTCTTTCTTTCTTTCTTTC
OUTPUT: 7.15

INPUT: Look up and report measured pKd for this entry: 60-bp dsDNA (dsDNA) DNA 1: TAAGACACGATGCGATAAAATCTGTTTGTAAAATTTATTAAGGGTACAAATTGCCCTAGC DNA 2: GCTAGGGCAATTTGTACCCTTAATAAATTTTACAAACAGATTTTATCGCATCGTGTCTTA
OUTPUT: 7.70

INPUT: Look up and report measured pKd for this entry: 60-bp dsRNA (dsRNA) RNA 1: UAAGACACGAUGCGAUAAAAUCUGUUUGUAAAAUUUAUUAAGGGUACAAAUUGCCCUAGC RNA 2: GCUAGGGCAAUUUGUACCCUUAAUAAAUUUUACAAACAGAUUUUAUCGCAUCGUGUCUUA
OUTPUT: 7.52
